Source listed as PubChem BioAssay AID1159580.

test: chemical genetic growth profiling, strain panel (AID 1159580);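 note: tested at 20 µM; growth read once vehicle control cultures reached saturation at 30 °C; 1 = growth at the plate median or of vehicle wells; lower values mean less growth of the strain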
test.context: S. cerevisiae deletion strains, growth OD, locus YJR066W, strain TOR1 (second series)
About 2,000 (36%) of roughly 5,500 compounds were called active. Not shown: some 18% with an inconclusive outcome. Cut-off read from the data, not from the text of the source: active = normalized growth mostly below about 0.91 (no sharp cut-off); inconclusive = no clear call, values can overlap the other calls; inactive = mostly above about 0.92. This is one part of the list.
Labels: 1.0 for active, 0.0 for inactive

{"compound": "COc1ccccc1C(C[N+](=O)[O-])c1c(N)n(C)c(=O)n(C)c1=O (centres undefined)", "class": 1.0}
{"compound": "Cc1nc(C(F)(F)F)c(C(=O)O/N=C(/N)c2ccc(Cl)cc2)s1", "class": 0.0}
{"compound": "CC(=O)C(Sc1nc2ccccc2s1)C(C)=O", "class": 0.0}
{"compound": "COCCOc1ccccc1NC(=S)SCCSC(=S)Nc1ccccc1OCCOC", "class": 0.0}
{"compound": "COc1ccccc1NC(=O)Nc1nn(C)c2cccc(OC)c12", "class": 0.0}
{"compound": "O=C(Nc1cccc(C(F)(F)F)c1)Oc1ccc(F)cc1Cl", "class": 0.0}
{"compound": "N/C(=N/OC(=O)c1ccc(Cl)cc1)c1ccc(F)cc1F", "class": 1.0}
{"compound": "O=C(Nc1ccccn1)c1cc(-c2ccccc2)c(C(F)(F)F)s1", "class": 0.0}
{"compound": "N#CC1=C(N)C(C#N)(C#N)C2(CCCCC2)C2CCCC=C12 (centres undefined)", "class": 0.0}
